measured-on: CD28 (human) (UniProt P10747)
assay-name: flow cytometry, transfected cells
value-kind: MFI ratio to WT (ΔWT) (fold)
Hi! Could you send only the number? It should be in fold, unit omitted.

* ICOSL-Fc N52K/N57Y/Q100R (Fc fusion) DTQEKEVRAMVGSDVELSCACPEGSRFDLNDVYVYWQTSESKTVVTYHIPQKSSLEYVDSRYRNRALMSPAGMLRGDFSLRLFNVTPQDEQKFHCLVLSRSLGFQEVLSVEVTLHVAANFSVPVVSAPHSPSQDELTFTCTSINGYPRPNVYWINKTDNSLLDQALQNDTVFLNMRGLYDVVSVLRIARTPSVNIGCCIENVLLQQNLTVGSQTGNDIGERDKITENPVSTGEKNAAT | 6.3
* ICOSL-Fc N52S/N57Y/Q100S (Fc fusion) DTQEKEVRAMVGSDVELSCACPEGSRFDLNDVYVYWQTSESKTVVTYHIPQSSSLEYVDSRYRNRALMSPAGMLRGDFSLRLFNVTPQDEQKFHCLVLSSSLGFQEVLSVEVTLHVAANFSVPVVSAPHSPSQDELTFTCTSINGYPRPNVYWINKTDNSLLDQALQNDTVFLNMRGLYDVVSVLRIARTPSVNIGCCIENVLLQQNLTVGSQTGNDIGERDKITENPVSTGEKNAAT | 7.2
* ICOSL-Fc N52Q/N57S/Q100A (Fc fusion) DTQEKEVRAMVGSDVELSCACPEGSRFDLNDVYVYWQTSESKTVVTYHIPQQSSLESVDSRYRNRALMSPAGMLRGDFSLRLFNVTPQDEQKFHCLVLSASLGFQEVLSVEVTLHVAANFSVPVVSAPHSPSQDELTFTCTSINGYPRPNVYWINKTDNSLLDQALQNDTVFLNMRGLYDVVSVLRIARTPSVNIGCCIENVLLQQNLTVGSQTGNDIGERDKITENPVSTGEKNAAT | 4.1
* ICOSL-Fc N52R/N57L/Q100A (Fc fusion) DTQEKEVRAMVGSDVELSCACPEGSRFDLNDVYVYWQTSESKTVVTYHIPQRSSLELVDSRYRNRALMSPAGMLRGDFSLRLFNVTPQDEQKFHCLVLSASLGFQEVLSVEVTLHVAANFSVPVVSAPHSPSQDELTFTCTSINGYPRPNVYWINKTDNSLLDQALQNDTVFLNMRGLYDVVSVLRIARTPSVNIGCCIENVLLQQNLTVGSQTGNDIGERDKITENPVSTGEKNAAT | 5.3

# context switch: different binder, same MFI ratio to WT (ΔWT)
# return recorded MFI ratio to WT (ΔWT) for entry ICOSL-Fc N52A/N57Y/Q100A (Fc fusion) DTQEKEVRAMVGSDVELSCACPEGSRFDLNDVYVYWQTSESKTVVTYHIPQASSLEYVDSRYRNRALMSPAGMLRGDFSLRLFNVTPQDEQKFHCLVLSASLGFQEVLSVEVTLHVAANFSVPVVSAPHSPSQDELTFTCTSINGYPRPNVYWINKTDNSLLDQALQNDTVFLNMRGLYDVVSVLRIARTPSVNIGCCIENVLLQQNLTVGSQTGNDIGERDKITENPVSTGEKNAAT 6.6

Data credit: patent US20250163127A1
